Entry source: patent EP4534554A1

# system.tested: T1, MAGE-A1 peptide on HLA-A*02:01 (human)
# T1 peptide: KVLEYVIKV
# assay.name: JKR9 reporter + peptide-loaded T2, 16 h; full-length, on cells
Quick reference for EC50 of peptide among some binders
# output: bare number, implied unit nM

Below: 2 binders and their reported EC50 of peptide.
{"binder": "A1A2-M01-623 (TCR, V domains shown) Valpha: GEDVEQSLFLSVREGDSSVINCTYTDSSQTYLYWYKQEPGAGLQLLTYIFIFQAMKQDQRLTVLLNKKDKHLSLRIADTQTGDSAIYFCAGSGGGTDKLIFGTGTRLQVFP Vbeta: GAVVSQHPSWVICKSGTSVKIECRSLDFEATTMFWYRQFPKQSLMLMATTDYGSKATYEQGVEKDKFLINHASLTLSTLTVTSAHPEDSSFYICSAREPGQGPWEQYFGPGTRLTVT", "uom": "nM", "EC50 of peptide": 30.6}
{"binder": "A1A2-M01-617 (TCR, V domains shown) Valpha: GEDVEQSLFLSVREGDSSVINCTYPDMFSTYLYWYKQEPGAGLQLLTYIFAFMQMKQDQRLTVLLNKKDKHLSLRIADTQTGDSAIYFCAGSGGGTDKLIFGTGTRLQVFP Vbeta: GAVVSQHPSWVICKSGTSVKIECRSLDFEATTMFWYRQFPKQSLMLMATSNEGDQATYEQGVEKDKFLINHASLTLSTLTVTSAHPEDSSFYICSAREPGQGPWEQYFGPGTRLTVT", "uom": "nM", "EC50 of peptide": 26.1}

Entry A1A2-M01-612 (TCR, V domains shown) Valpha: GEDVEQSLFLSVREGDSSVINCTYVDPYSTYLYWYKQEPGAGLQLLTYIFSFMDMKQDQRLTVLLNKKDKHLSLRIADTQTGDSAIYFCAGSGGGTDKLIFGTGTRLQVFP Vbeta: GAVVSQHPSWVICKSGTSVKIECRSLDFEATTMFWYRQFPKQSLMLMATSNEGSKATYEQGVEKDKFLINHASLTLSTLTVTSAHPEDSSFYICSAREPWDPWYEQYFGPGTRLTVT ; EC50 of peptide = 23
